Origin of the recorded values: paper PMC6171417

# TEST SYSTEM: hCA IX (Homo sapiens)
# Construct: gene CA9; recombinant, obtained in-house as reported earlier
# ASSAY PROCEDURE: stopped-flow CO2 hydrase assay
# Format: biochemical
# PARTICULARS: CO2 […], […] Hepes pH […] Na2SO4, […] phenol red, […] min pre-incubation at room temperature
OBSERVABLE: Ki (nM)
Use nM as the unit, but write only the number.

Query: Query the reported Ki for hCA IX (Homo sapiens); item: "CN(C)c1ccc(-c2nc3c(nnn3-c3ccc(S(N)(=O)=O)cc3)c(N)c2C#N)cc1"
Response: 35.1

###

For each entry below, report its inhibition at 10 µM value.
# Test system: HS 578T
# ASSAY PROCEDURE: cells
# Design: species or system NCI human tumour cell line panel; NCI one-dose anti-proliferative screen, human tumour cell line panel, growth inhibition percent (GI%)
# PARTICULARS: Homo sapiens, Hs-578T; growth inhibition (GI%), single dose
Use % as the unit, but write only the number.

Query: Query the reported inhibition at 10 µM for HS 578T; item: "CCn1c(=S)[nH]c2c(nnn2-c2ccc(S(N)(=O)=O)cc2)c1=N"
Response: 2.5

Query: Consider next the molecule "N#Cc1nnn(-c2ccc(S(N)(=O)=O)cc2)c1NCC(=O)c1ccccc1" in the same way.
Response: 1.7

Query: Consider next the molecule "N#Cc1c(-c2ccc(Cl)cc2)nc2c(nnn2-c2ccc(S(N)(=O)=O)cc2)c1N" in the same way.
Response: 12.1

Query: Consider next the molecule "N#Cc1nnn(-c2ccc(S(N)(=O)=O)cc2)c1N" in the same way.
Response: 5.9

Query: Consider next the molecule "Nc1nc(=S)[nH]c2c1nnn2-c1ccc(S(N)(=O)=O)cc1" in the same way.
Response: 9.8

Query: Consider next the molecule "CN(C)c1ccc(-c2nc3c(nnn3-c3ccc(S(N)(=O)=O)cc3)c(N)c2C#N)cc1" in the same way.
Response: 2.9

###

# TEST SYSTEM: hCA II (Homo sapiens, UniProt P00918)
# Construct: gene CA2; recombinant, obtained in-house as reported earlier; cytosolic
# ASSAY PROCEDURE: stopped-flow CO2 hydrase assay
# Type: biochemical
For each entry below, report its log10 Ki value.
# log10 transformed; quantity=Ki; unit=nM

Query: Query the reported log10 Ki for hCA II (Homo sapiens, UniProt P00918); item: "Nc1nc(=S)[nH]c2c1nnn2-c1ccc(S(N)(=O)=O)cc1"
Response: 2.86

Query: Consider next the compound "Cc1ccc(S(=O)(=O)Nc2c(C#N)nnn2-c2ccc(S(N)(=O)=O)cc2)cc1" in the same way.
Response: 1.95

Query: Consider next the compound "N#Cc1c(N)c2nnn(-c3ccc(S(N)(=O)=O)cc3)c2[nH]c1=O" in the same way.
Response: 2.98

Query: Consider next the compound "N=c1c2nnn(-c3ccc(S(N)(=O)=O)cc3)c2[nH]c(=O)n1-c1ccccc1" in the same way.
Response: 2.77

Query: Consider next the compound "N#Cc1nnn(-c2ccc(S(N)(=O)=O)cc2)c1NS(=O)(=O)c1ccccc1" in the same way.
Response: 2.55

Query: Consider next the compound "CN(C)c1ccc(-c2nc3c(nnn3-c3ccc(S(N)(=O)=O)cc3)c(N)c2C#N)cc1" in the same way.
Response: 1.75

Query: Consider next the compound "CC(=O)CC(=O)Nc1c(C#N)nnn1-c1ccc(S(N)(=O)=O)cc1" in the same way.
Response: 2.84

Query: Consider next the compound "N#Cc1c(-c2ccccc2Cl)nc2c(nnn2-c2ccc(S(N)(=O)=O)cc2)c1N" in the same way.
Response: 2.36

Query: Consider next the compound "N#Cc1nnn(-c2ccc(S(N)(=O)=O)cc2)c1/N=C/c1ccccc1Cl" in the same way.
Response: 3.79

Query: Consider next the compound "N#Cc1nnn(-c2ccc(S(N)(=O)=O)cc2)c1N" in the same way.
Response: 1.22

Query: Consider next the compound "N#Cc1nnn(-c2ccc(S(N)(=O)=O)cc2)c1NCC(=O)c1ccccc1" in the same way.
Response: 2.75

###

For each entry below, report its Ki value.
# TEST SYSTEM: hCA I (Homo sapiens, UniProt P00915)
# Construct: gene CA1; recombinant, obtained in-house as reported earlier; cytosolic
# Sequence (P00915 2-261): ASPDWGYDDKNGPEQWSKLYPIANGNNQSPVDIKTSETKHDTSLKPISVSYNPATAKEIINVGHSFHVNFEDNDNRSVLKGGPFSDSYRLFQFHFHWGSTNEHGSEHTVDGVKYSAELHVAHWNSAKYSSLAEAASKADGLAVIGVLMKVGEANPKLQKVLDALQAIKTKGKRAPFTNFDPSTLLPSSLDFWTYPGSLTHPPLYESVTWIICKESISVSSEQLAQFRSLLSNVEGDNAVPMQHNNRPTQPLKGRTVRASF
# ASSAY PROCEDURE: stopped-flow CO2 hydrase assay
# Type: biochemical

Query: Fill blank: measured Ki of the compound N#Cc1c(-c2ccccc2Cl)nc2c(nnn2-c2ccc(S(N)(=O)=O)cc2)c1N [compound 15] is ____.
Response: 2690 nM

Query: Consider next the compound N#Cc1nnn(-c2ccc(S(N)(=O)=O)cc2)c1NCC(=O)c1ccccc1 [compound 7] in the same way.
Response: 1790 nM

Query: Consider next the compound N#Cc1nnn(-c2ccc(S(N)(=O)=O)cc2)c1/N=C/c1ccc(Cl)cc1 [compound 9] in the same way.
Response: 1600 nM

Query: Consider next the compound CCn1c(=S)[nH]c2c(nnn2-c2ccc(S(N)(=O)=O)cc2)c1=N [compound 20] in the same way.
Response: 909 nM

Query: Consider next the compound N#Cc1nnn(-c2ccc(S(N)(=O)=O)cc2)c1N [compound 3] in the same way.
Response: 1940 nM

Query: Consider next the compound N#Cc1nnn(-c2ccc(S(N)(=O)=O)cc2)c1/N=C/c1ccccc1Cl [compound 8] in the same way.
Response: 5140 nM

Query: Consider next the compound Nc1c(C2=NCCN2)nnn1-c1ccc(S(N)(=O)=O)cc1 [compound 4] in the same way.
Response: 9940 nM

Query: Consider next the compound CN(C)c1ccc(-c2nc3c(nnn3-c3ccc(S(N)(=O)=O)cc3)c(N)c2C#N)cc1 [compound 17] in the same way.
Response: 683 nM

Query: Consider next the compound N#Cc1c(-c2ccccc2)nc2c(nnn2-c2ccc(S(N)(=O)=O)cc2)c1N [compound 14] in the same way.
Response: 1250 nM

Query: Consider next the compound CN(C)c1ccc(/C=N/c2c(C#N)nnn2-c2ccc(S(N)(=O)=O)cc2)cc1 [compound 10] in the same way.
Response: 2920 nM

Query: Consider next the compound N=c1c2nnn(-c3ccc(S(N)(=O)=O)cc3)c2[nH]c(=O)n1-c1ccccc1 [compound 19] in the same way.
Response: 2800 nM

Query: Consider next the compound N#Cc1c(N)c2nnn(-c3ccc(S(N)(=O)=O)cc3)c2[nH]c1=O [compound 13] in the same way.
Response: 790 nM

Query: Consider next the compound Cc1ccc(S(=O)(=O)Nc2c(C#N)nnn2-c2ccc(S(N)(=O)=O)cc2)cc1 [compound 12] in the same way.
Response: 8100 nM

Query: Consider next the compound N#Cc1nnn(-c2ccc(S(N)(=O)=O)cc2)c1NC(=O)CCl [compound 5] in the same way.
Response: 2550 nM

Query: Consider next the compound Nc1nc(=S)[nH]c2c1nnn2-c1ccc(S(N)(=O)=O)cc1 [compound 18] in the same way.
Response: 955 nM

Query: Consider next the compound N#Cc1nnn(-c2ccc(S(N)(=O)=O)cc2)c1NS(=O)(=O)c1ccccc1 [compound 11] in the same way.
Response: 5550 nM

Query: Consider next the compound N=c1c2nnn(-c3ccc(S(N)(=O)=O)cc3)c2[nH]c(=S)n1-c1ccc(S(=O)(=O)Nc2cnc3ccccc3n2)cc1 [compound 21] in the same way.
Response: 5840 nM

Query: Consider next the compound CC(=O)CC(=O)Nc1c(C#N)nnn1-c1ccc(S(N)(=O)=O)cc1 [compound 6] in the same way.
Response: 2860 nM

Query: Consider next the compound N#Cc1c(-c2ccc(Cl)cc2)nc2c(nnn2-c2ccc(S(N)(=O)=O)cc2)c1N [compound 16] in the same way.
Response: 605 nM

###

For each entry below, report its inhibition at 10 µM value.
# Test system: SNB-19
# ASSAY PROCEDURE: cells
# Set-up: species or system NCI human tumour cell line panel; NCI one-dose anti-proliferative screen, human tumour cell line panel, growth inhibition percent (GI%)
# PARTICULARS: Homo sapiens, SNB-19; growth inhibition (GI%), single dose
In your response, put the unit directly after the numeric value.

Query: Fill blank: measured inhibition at 10 µM of the molecule Nc1nc(=S)[nH]c2c1nnn2-c1ccc(S(N)(=O)=O)cc1 [compound 18] is ____.
Response: 1.7%

Query: Consider next the molecule N#Cc1nnn(-c2ccc(S(N)(=O)=O)cc2)c1N [compound 3, 3] in the same way.
Response: 2.9%

Query: Consider next the molecule N#Cc1nnn(-c2ccc(S(N)(=O)=O)cc2)c1NS(=O)(=O)c1ccccc1 [compound 11] in the same way.
Response: 2.8%

Query: Consider next the molecule CN(C)c1ccc(-c2nc3c(nnn3-c3ccc(S(N)(=O)=O)cc3)c(N)c2C#N)cc1 [compound 17] in the same way.
Response: 0.8%

Query: Consider next the molecule CCn1c(=S)[nH]c2c(nnn2-c2ccc(S(N)(=O)=O)cc2)c1=N [compound 20] in the same way.
Response: 1.9%

Query: Consider next the molecule N#Cc1nnn(-c2ccc(S(N)(=O)=O)cc2)c1NCC(=O)c1ccccc1 [compound 7, 7] in the same way.
Response: 7.8%

Query: Consider next the molecule N#Cc1c(-c2ccc(Cl)cc2)nc2c(nnn2-c2ccc(S(N)(=O)=O)cc2)c1N [compound 16] in the same way.
Response: 3.4%
